Target: EGFR (Human), P00533 [Assessment of EGFR-Del T790M Dependent Cell Proliferation in BaF3 Cells]
Sequence (P00533 whole entry, looked up, stated change not applied): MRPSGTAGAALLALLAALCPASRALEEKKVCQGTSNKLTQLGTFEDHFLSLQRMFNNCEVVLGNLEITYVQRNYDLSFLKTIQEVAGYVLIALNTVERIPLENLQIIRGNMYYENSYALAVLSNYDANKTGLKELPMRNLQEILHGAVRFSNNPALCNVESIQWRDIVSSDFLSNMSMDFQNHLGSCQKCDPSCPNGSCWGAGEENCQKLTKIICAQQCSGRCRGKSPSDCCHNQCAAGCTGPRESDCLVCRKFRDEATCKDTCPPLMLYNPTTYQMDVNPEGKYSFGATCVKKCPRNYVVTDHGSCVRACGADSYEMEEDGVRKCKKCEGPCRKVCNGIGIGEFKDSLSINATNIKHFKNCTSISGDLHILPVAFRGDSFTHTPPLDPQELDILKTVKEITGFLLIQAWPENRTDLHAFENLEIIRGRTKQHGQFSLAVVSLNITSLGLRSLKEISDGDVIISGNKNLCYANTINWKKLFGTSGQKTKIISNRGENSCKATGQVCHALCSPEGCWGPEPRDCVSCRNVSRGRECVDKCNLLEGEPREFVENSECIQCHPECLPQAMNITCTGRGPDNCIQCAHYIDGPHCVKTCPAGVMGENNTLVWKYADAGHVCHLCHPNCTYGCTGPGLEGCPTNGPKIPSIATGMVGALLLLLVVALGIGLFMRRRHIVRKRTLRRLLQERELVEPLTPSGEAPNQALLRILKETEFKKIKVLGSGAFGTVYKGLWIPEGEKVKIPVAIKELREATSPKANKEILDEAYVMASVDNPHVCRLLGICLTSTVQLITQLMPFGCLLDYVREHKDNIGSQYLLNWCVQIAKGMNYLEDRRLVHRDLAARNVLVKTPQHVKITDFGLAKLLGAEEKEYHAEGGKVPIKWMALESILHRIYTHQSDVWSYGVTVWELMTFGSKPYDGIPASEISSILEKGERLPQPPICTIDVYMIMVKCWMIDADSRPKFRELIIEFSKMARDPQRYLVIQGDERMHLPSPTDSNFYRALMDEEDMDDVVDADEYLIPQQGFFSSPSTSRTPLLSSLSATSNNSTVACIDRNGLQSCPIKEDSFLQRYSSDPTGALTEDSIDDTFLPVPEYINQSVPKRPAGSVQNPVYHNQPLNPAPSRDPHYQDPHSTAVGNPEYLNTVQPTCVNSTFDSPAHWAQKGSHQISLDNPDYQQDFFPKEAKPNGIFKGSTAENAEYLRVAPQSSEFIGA
Listed here are compounds together with their documented IC50.

Some solved cases for reference:
- C=CC(=O)Nc1cc(Nc2ncc(Cl)c(Nc3ccccc3P(C)(C)=O)n2)c(OC)cc1N1CCC(N2CCC(O)C2)C1 (stereo not drawn): 101 to 250 nM
- C=CC(=O)Nc1cc(Nc2ncc(Cl)c(Nc3ccccc3P(C)(C)=O)n2)c(OC)cc1C#CCN(C)CCOC: < 50 nM

Q: Endpoint output: IC50 of `COc1ccc(NC(=O)C#CC(C)(C)N2CCCC2)cc1Nc1ncc(Cl)c(Nc2ccccc2P(C)(C)=O)n1` . Value?
Result: < 50 nM

Q: Tell me the measured IC50 of `C=CC(=O)Nc1cc(Nc2ncc(Cl)c(Nc3ccccc3P(C)(C)=O)n2)c(OC)cc1OC1CN(C)C1` , please.
Result: 50 to 100 nM
